Test system: UACC-62 melanoma
Experiment: NCI tumour cell line growth inhibition, 48 h
Provide the reported TGI of each item.

TGI reading for Cc1ccc(NC(=O)CC(=O)n2nc(C)c(N=Nc3ccccc3C(=O)O)c2C)cc1 : > 100 µM

TGI reading for c1ccc2c(c1)CC1=C(O2)c2ccccc2OC1 : 92.8 µM

TGI reading for CN1CCN(c2ccc3[nH]c(-c4cc(O)c5c(nc(CO)n5C)c4O)nc3n2)CC1 : 27.8 µM

TGI reading for C[N+](C)(C)CCCSc1nc2ccccc2[nH]1 : > 100 µM

TGI reading for COc1ccc(N2C(=O)/C(=C/c3ccc(N(CCC#N)CCC#N)cc3C)N=C2c2cc([N+](=O)[O-])ccc2Cl)cc1 : > 46.4 µM

TGI reading for O=c1cc(-c2ccccc2)oc2cc(OC/C(=N/O)c3ccccc3)ccc12 : > 50 µM

TGI reading for Nc1cccnc1NCC1(CO)CCCC1 : > 100 µM

TGI reading for Nc1nccc(-c2c(-c3ccc(F)cc3)ncn2C2CCC(O)CC2)n1 (stereo not given) : > 25 µM

TGI reading for Nc1nc(N(Cc2ccccc2)c2ccccc2)c2cn[nH]c2n1 : > 100 µM

TGI reading for Oc1c2cc(Cl)cc1COCc1cc(Cl)cc(c1O)COCc1cc(Cl)cc(c1O)COC2 : > 100 µM

* * *

Test system: SK-MEL-5 melanoma
Test: NCI tumour cell line growth inhibition, 48 h
Provide the reported TGI of each item.

TGI reading for CCOC(=O)c1cc2c([nH]1)c(O)cc1c2ccn1Cc1ccccc1 : 24.5 µM

TGI reading for O=C(O)CCC(=O)Nc1ccc2ccccc2c1 : > 100 µM

TGI reading for COc1ccc2c(c1)C(=O)c1c-2n(CCCn2ccnc2)c(=O)c2cc([N+](=O)[O-])ccc12 : < 0.01 µM

TGI reading for CCN(CCO)C(=O)C1(c2ccccc2)CCCCC1 : > 10 µM

TGI reading for CCCC(=O)OCC1OC(n2cnc3c(=S)nc[nH]c32)C(OC(=O)CCC)C1OC(=O)CCC (stereo unspecified) : 62.9 µM

TGI reading for CNC(=O)C1CCc2nnc(-c3ccccc3)n21 (stereo unspecified) : > 100 µM

TGI reading for N#CC12CNCC1CN=N2 (stereo unspecified) : > 100 µM

TGI reading for CC1CN1C(=O)NCCCCCCNC(=O)N1CC1C (stereo unspecified) : > 100 µM

TGI reading for C#CCNC(=O)c1cccc2c1cc(C)n2-c1nc2c(c(NCc3ccccc3)n1)CCCC2 : 0.0235 µM

TGI reading for Cc1c(C(=O)C/C(=N/NC(=O)C[N+](C)(C)C)C(=O)Nc2ccc(Cl)cc2)[n+](=O)c2ccccc2n1O : > 100 µM

TGI reading for CCCCCCCCCCCCN(CC(O)C(O)C(OC1OC(CO)C(O)C(O)C1O)C(O)CO)C(=O)CCCCCCCCCCC (stereo unspecified) : 31.3 µM

* * *

System: HT29 colon
Assay: NCI tumour cell line growth inhibition, 48 h; in the data active means GI50 below about 0.43 µM; inactive means the rest
Valid outcomes are listed here; reply with one: active, inactive

Input line: Check the results log: what was the call for Nc1nc2c(nnn2C2CC(O)C(CO)O2)c(=O)[nH]1 (configuration not stated) ?
Output line: inactive

Input line: Check the results log: what was the call for CC[C@@]1(c2ccccc2)C2=C(CC(C)(C)CC2=O)Nc2[nH]ncc21 ?
Output line: inactive

Input line: Check the results log: what was the call for Cc1ccc(C(=O)N(CCCN)C(c2oc3cc(Cl)ccc3c(=O)c2Cc2ccccc2)C(C)C)cc1 (configuration not stated) ?
Output line: active

Input line: Check the results log: what was the call for C#CCNC(=O)c1cccc2c1cc(C)n2-c1nc2c(c(NCc3ccccc3)n1)CCCC2 ?
Output line: active

Input line: Check the results log: what was the call for COc1ccc(-c2onc(N)c2-c2cc(OC)c3c(c2)OCO3)cc1 ?
Output line: inactive

Input line: Check the results log: what was the call for CS(=O)(=O)CCNCc1ccc(-c2ccc3ncnc(Nc4ccc(OCc5ccccc5)cc4)c3c2)o1 ?
Output line: inactive

Input line: Check the results log: what was the call for COc1cc2cc(Oc3ccc(NC(=O)Nc4ccc(Cl)c(C(F)(F)F)c4)cc3)c(C)nc2cc1OCCN1CCOCC1 ?
Output line: inactive
